subject.of.test: porcine pancreatic PLA2 (Sus scrofa)
Construct: from tissue; host or cells: porcine pancreas
Sequence (P00592 23-146): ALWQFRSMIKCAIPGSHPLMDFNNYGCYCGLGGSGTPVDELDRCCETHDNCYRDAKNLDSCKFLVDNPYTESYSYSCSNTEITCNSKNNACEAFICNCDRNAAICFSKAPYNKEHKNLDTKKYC
assay.details: In Vitro Phospholipase A2 Assay (PLA2)
Assay type: biochemical
experimental.parameters: 0.01 M test compound, 37° C., pH 8.0; read-out: PLA2 (difference vs. control)
Where a name gives a salt, the structure may show the parent alone.
// reported inhibition at 10000 µM for each item listed
Report the value in % with no unit label.

Take a look at these entries with their results.
COC(=O)c1ccccc1Oc1cnccc1N [hydrochloride]: 38
Nc1ccncc1Oc1ccccc1CO [oxalate]: 82
Cl.Nc1ccncc1Oc1ccccc1 [3-phenoxy-4-pyridinamine hydrochloride, 3-Phenoxy-4-pyridinamine hydrochloride]: 95

Please turn your attention to the following entry.
Which inhibition at 10000 µM is listed for CC(=O)Nc1ccncc1Oc1ccccc1 [hydrochloride] ?
73
